# System: MOLT-3 cell line
# TEST SUMMARY: cells
# Type: cell-based, human
# CONDITION NOTES: Table S1, MOLT-3, 96 hours
OUTCOME MEASURE: IC50

// returns reported IC50 for input O=C1[O][Pt]2([NH][C@@H]3CCCC[C@H]3[NH]2)[O]C1=O
0.969 µM

// returns reported IC50 for input N.N.[Cl][Pt][Cl] [Cisplatin]
> 10 µM

// returns reported IC50 for input NC(=O)NO [Hydroxyurea]
> 10 µM

// returns reported IC50 for input Nc1nc(F)nc2c1ncn2[C@@H]1O[C@H](CO)[C@@H](O)[C@@H]1O
> 10 µM
